B1: KLHL14 (parent)
chain: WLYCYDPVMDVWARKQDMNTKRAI

- Variants of: B1
- assayOverview: protein stability index of a GFP-peptide fusion (GPS, HEK-293T) (PSI 1-6); higher = more stable;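 note: lentivirally expressed fusions sorted by FACS into six bins by GFP to DsRed ratio, PSI derived from sequencing read proportions per bin multiplied by bin number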
- conditionsUsed: c terminus: a fixed tail appended
Short version: protein stability index at least 2 is YES, less is NO.

Q: Threshold query (protein stability index >= 2) on `N19D`
Result: YES

Q: Check this variant for protein stability index at or above 2: `V8Q`
Result: NO

Q: Reported protein stability index reaches at least 2 for `Y5A` ?
Result: NO

Q: Is protein stability index at least 2? Consider `D10C`
Result: NO

Q: Item `N19C` with protein stability index of 2 or above?
Result: NO

Q: Could you tell me if the measured protein stability index of `R22E` reaches 2 or more?
Result: YES

Q: For this variant, is measured protein stability index 2 or higher? `R14L`
Result: YES

Q: Could you verify whether the entry `N19M` shows protein stability index of no less than 2?
Result: YES

Q: Item `T20V` with protein stability index of 2 or above?
Result: YES
